All values here come from patent US20240293392A1.

TGT: recombinant N-terminal MLH1 (residues 15-340) (Homo sapiens)
Construct: recombinant N-terminal MLH1 (residues 15-340)
Sequence (P40692 15-340): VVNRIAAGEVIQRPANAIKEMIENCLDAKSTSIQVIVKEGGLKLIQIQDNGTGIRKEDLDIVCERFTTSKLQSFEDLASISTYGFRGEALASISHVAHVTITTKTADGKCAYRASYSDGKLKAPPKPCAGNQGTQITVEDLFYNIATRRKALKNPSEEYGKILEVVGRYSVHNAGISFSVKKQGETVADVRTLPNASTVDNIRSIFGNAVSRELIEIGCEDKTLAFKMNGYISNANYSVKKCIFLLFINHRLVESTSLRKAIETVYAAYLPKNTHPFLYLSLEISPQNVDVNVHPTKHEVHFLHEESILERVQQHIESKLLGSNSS
EXPERIMENTAL DETAILS: Fluorescence Polarisation Assay for MLH1
STUDY CONDITIONS: fluorescence polarisation probe displacement; 100 nM N-terminal MLH1, 5 nM probe compound
Counter-ions that a name gives are not always drawn.
Entries and their IC50 values follow.
MEASURE NAME: IC50

molecule="CN(c1cccc2c1CN(C(=O)c1c(O)cc(O)cc1OCc1ccccc1)CC2)C1CCOC1 (stereo not shown)" test_result="> 10000 nM"
molecule=O=C(c1c(O)cc(O)cc1OCc1ccccc1)N1Cc2cccc(NC3COC3)c2C1 test_result="< 1000 nM"
molecule="CCOc1cc(O)cc(O)c1C(=O)N1Cc2cccc(NC3CCOC3)c2C1 (stereo not shown)" test_result="< 1000 nM"
molecule=CNCc1cccc2c1CN(C(=O)c1c(O)cc(O)cc1OCc1ccccc1)C2 test_result="1000 to 10000 nM"
molecule=CC(=O)Nc1cccc2c1CN(C(=O)c1c(O)cc(O)cc1OCc1ccccc1)C2 test_result="1000 to 10000 nM"
molecule="O=C(c1c(O)cc(O)cc1OCc1ccccc1)N1CCc2ccc(CNC3CCOC3)cc2C1 (stereo not shown)" test_result="1000 to 10000 nM"
molecule="NCCCCCN1CCN(Cc2ccc3c(c2)CN(C(=O)c2c(O)cc(O)cc2OCc2ccccc2)C3)CC1 [Example 104, hydrochloride]" test_result="< 1000 nM"
molecule="COc1ccc(COc2cc(O)cc(O)c2C(=O)N2Cc3cccc(NC4CCOC4)c3C2)cc1 (stereo not shown)" test_result="< 1000 nM"
molecule=CC(=O)NCc1cccc2c1CN(C(=O)c1c(O)cc(O)cc1OCc1ccccc1)C2 test_result="1000 to 10000 nM"
molecule="CC(Nc1cccc2c1CN(C(=O)c1c(O)cc(O)cc1OCc1ccccc1)C2)C1COC1 (stereo not shown)" test_result="1000 to 10000 nM"
molecule=CC12CC(Nc3cccc4c3CN(C(=O)c3c(O)cc(O)cc3OCc3ccccc3)C4)(CO1)C2 test_result="< 1000 nM"
molecule="O=C(c1c(O)cc(O)cc1OCc1ccccc1)N1Cc2cccc(N3CCCC(O)C3)c2C1 (stereo not shown)" test_result="1000 to 10000 nM"
molecule=CC(=O)N1CCC[C@H](Nc2cccc3c2CN(C(=O)c2c(O)cc(O)cc2OCc2ccccc2)CC3)C1 test_result="1000 to 10000 nM"
molecule=CN(C)Cc1cc2c(c(N[C@H]3CCOC3)c1)CN(C(=O)c1c(O)cc(O)cc1OCc1ccccc1)CC2 test_result="< 1000 nM"
molecule=CN1C[C@H](Nc2cccc3c2CN(C(=O)c2c(O)cc(O)cc2OCc2ccccc2)C3)CC1=O test_result="< 1000 nM"
molecule=CN1CCN(Cc2cc3c(c(N[C@H]4CCOC4)c2)CN(C(=O)c2c(O)cc(O)cc2OCc2ccccc2)CC3)CC1 test_result="< 1000 nM"

---

TGT: recombinant N-terminal PMS2 (residues 1-365) (Homo sapiens)
Construct: recombinant N-terminal PMS2 (residues 1-365)
EXPERIMENTAL DETAILS: Fluorescence Polarisation Assay for PMS2
Format: binding
STUDY CONDITIONS: fluorescence polarisation probe displacement; 10 nM N-terminal PMS2, 5 nM probe compound; read-out: PMS2 IC50
MEASURE NAME: IC50

compound=Cc1c[nH]c(=O)cc1Nc1cccc2c1CN(C(=O)c1c(O)cc(O)cc1OCc1ccccc1)C2 test_result="1 to 10 µM"
compound=CNC(=O)c1ccc2c(c1)CN(C(=O)c1c(O)cc(O)cc1OCc1ccccc1)C2 test_result="< 1 µM"
compound="O=C(c1c(O)cc(O)cc1OCc1ccccc1)N1Cc2cccc(NC3CCOC3)c2C1 (stereo not drawn)" test_result="1 to 10 µM"
compound=CC(=O)N1CC[C@H](Nc2cccc3c2CN(C(=O)c2c(O)cc(O)cc2OCc2ccccc2)CC3)C1 test_result="> 10 µM"
compound=O=C(c1c(O)cc(O)cc1OCc1ccccc1)N1CCc2cccc(Nc3ccnnc3)c2C1 test_result="1 to 10 µM"
compound=CN1CCN(C(=O)c2cc3c(c(N[C@H]4CCOC4)c2)CN(C(=O)c2c(O)cc(O)cc2OCc2ccccc2)CC3)CC1 test_result="< 1 µM"
compound="O=C(c1c(O)cc(O)cc1OCc1ccccc1)N1Cc2cccc(N3CCCC(O)C3)c2C1 (stereo not drawn)" test_result="1 to 10 µM"
compound=COc1ccc2c(c1)CN(C(=O)c1c(O)cc(O)cc1OCc1ccccc1)CC2 test_result="1 to 10 µM"
compound="O=C(c1c(O)cc(O)cc1OCc1ccccc1)N1CCc2ccc(F)c(NC3CCOC3)c2C1 (stereo not drawn)" test_result="1 to 10 µM"
compound=NC(=O)c1ccc(Nc2cccc3c2CN(C(=O)c2c(O)cc(O)cc2OCc2ccccc2)CC3)cc1 test_result="> 10 µM"
compound=CN1CCC(Nc2cccc3c2CN(C(=O)c2c(O)cc(O)cc2OCc2ccccc2)CC3)CC1 test_result="> 10 µM"
compound="O=C(c1c(O)cc(O)cc1OCc1ccccc1)N1CCc2c(cccc2NC2CCOC2)C1 (stereo not drawn)" test_result="1 to 10 µM"
compound="O=C(c1c(O)cc(O)cc1OCc1cccnc1)N1Cc2cccc(NC3CCOC3)c2C1 (stereo not drawn)" test_result="> 10 µM"
compound=CN(C)C(=O)c1cc2c(c(N[C@H]3CCOC3)c1)CN(C(=O)c1c(O)cc(O)cc1OCc1ccccc1)CC2 test_result="< 1 µM"
compound=O=C(c1c(O)cc(O)cc1OCc1ccccc1)N1CCc2cccc(NC3COC3)c2C1 test_result="1 to 10 µM"
compound="O=C(c1c(O)cc(O)cc1OCc1ccccc1)N1Cc2ccccc2C1CO (stereo not drawn)" test_result="1 to 10 µM"
compound="O=C(c1c(O)cc(O)cc1OCc1ccccc1)N1Cc2cccc(NCC3CCOC3)c2C1 (stereo not drawn)" test_result="1 to 10 µM"
compound=CN1C[C@@H](Nc2cccc3c2CN(C(=O)c2c(O)cc(O)cc2OCc2ccccc2)C3)CC1=O test_result="< 1 µM"
compound=O=C(c1c(O)cc(O)cc1OCc1ccccc1)N1Cc2cccc(NC3COC3)c2C1 test_result="1 to 10 µM"
compound=CN(C)Cc1cc2c(c(N[C@H]3CCOC3)c1)CN(C(=O)c1c(O)cc(O)cc1OCc1ccccc1)CC2 test_result="< 1 µM"
compound=CN1CCC(Oc2cc3c(c(N[C@H]4CCOC4)c2)CN(C(=O)c2c(O)cc(O)cc2OCc2ccccc2)CC3)CC1 test_result="< 1 µM"
compound="COc1cc2c(c(NC3CCOC3)c1)CN(C(=O)c1c(O)cc(O)cc1OCc1ccccc1)CC2 (single isomer, unassigned) [Example 72]" test_result="1 to 10 µM"
compound="O=C(c1c(O)cc(O)cc1OCc1cccnn1)N1Cc2cccc(NC3CCOC3)c2C1 (stereo not drawn)" test_result="> 10 µM"
compound=O=C(c1c(O)cc(O)cc1OCc1ccccc1)N1CCc2cccc(NC3CCCC3)c2C1 test_result="> 10 µM"
compound="COc1cc2c(c(NC3CCOC3)c1)CN(C(=O)c1c(O)cc(O)cc1OCc1ccccc1)CC2 (single isomer, unassigned) [Example 73]" test_result="> 10 µM"
compound=O=C(c1c(O)cc(O)cc1OCc1ccccc1)N1CCc2cccc(Nc3cccnc3)c2C1 test_result="1 to 10 µM"
compound=COCCCC(=O)N1CC[C@H](N(C)c2cccc3c2CN(C(=O)c2c(O)cc(O)cc2OCc2ccccc2)CC3)C1 test_result="> 10 µM"

---

TGT: recombinant N-terminal PMS2 (residues 1-365) (Homo sapiens, UniProt P54278)
Construct: recombinant N-terminal PMS2 (residues 1-365)
Sequence (P54278 1-365): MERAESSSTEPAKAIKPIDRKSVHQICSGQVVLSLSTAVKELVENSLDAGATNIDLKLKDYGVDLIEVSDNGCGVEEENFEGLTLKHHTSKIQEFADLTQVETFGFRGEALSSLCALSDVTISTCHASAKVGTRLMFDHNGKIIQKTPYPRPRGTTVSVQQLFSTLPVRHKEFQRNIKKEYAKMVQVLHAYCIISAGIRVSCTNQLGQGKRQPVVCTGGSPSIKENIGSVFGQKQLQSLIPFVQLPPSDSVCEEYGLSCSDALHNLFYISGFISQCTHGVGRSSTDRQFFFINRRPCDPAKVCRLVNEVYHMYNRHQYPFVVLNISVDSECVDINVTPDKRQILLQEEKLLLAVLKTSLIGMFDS
EXPERIMENTAL DETAILS: Fluorescence Polarisation Assay for PMS2
Assay type: binding
STUDY CONDITIONS: fluorescence polarisation probe displacement; 10 nM N-terminal PMS2, 5 nM probe compound; read-out: PMS2 IC50
Entries and their IC50 values follow.
MEASURE NAME: IC50

compound="COc1cc(O)cc(O)c1C(=O)N1Cc2cccc(NC3CCOC3)c2C1 (stereo not shown)" tgt="recombinant N-terminal PMS2 (residues 1-365) (Homo sapiens, UniProt P54278)" test_result="> 10 µM"
compound=CC(=O)Nc1cccc2c1CN(C(=O)c1c(O)cc(O)cc1OCc1ccccc1)CC2 tgt="recombinant N-terminal PMS2 (residues 1-365) (Homo sapiens, UniProt P54278)" test_result="1 to 10 µM"
compound=CC(=O)N1CC(Nc2cccc3c2CN(C(=O)c2c(O)cc(O)cc2OCc2ccccc2)CC3)C1 tgt="recombinant N-terminal PMS2 (residues 1-365) (Homo sapiens, UniProt P54278)" test_result="1 to 10 µM"
compound=N#CC1CN(c2cccc3c2CN(C(=O)c2c(O)cc(O)cc2OCc2ccccc2)C3)C1 tgt="recombinant N-terminal PMS2 (residues 1-365) (Homo sapiens, UniProt P54278)" test_result="1 to 10 µM"
